Origin of the recorded values: the supplement of paper PMC5998384

tested on: HeLa Kyoto; test: melting temperature (median over replicates), in situ; higher = more thermally stable; details: cell cycle stage: mitosis;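 further: HeLa Kyoto cells synchronized by double thymidine or nocodazole block, proteins quantified by TMT10plex mass spectrometry, three independent biological replicates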
Listing: melting temperature of selected substances

>  <Substance>
ARHGEF5

>  <melting temperature [°C]>
51.4

$$$$
>  <Substance>
MAACTARRALAVGSRWWSRSLTGARWPRPLCAAAGAGAFSPASTTTTRRHLSSRNRPEGKVLETVGVFEVPKQNGKYETGQLFLHSIFGYRGVVLFPWQARLYDRDVASAAPEKAENPAGHGSKEVKGKTHTYYQVLIDARDCPHISQRSQTEAVTFLANHDDSRALYAIPGLDYVSHEDILPYTSTDQVPIQHELFERFLLYDQTKAPPFVARETLRAWQEKNHPWLELSDVHRETTENIRVTVIPFYMGMREAQNSHVYWWRYCIRLENLDSDVVQLRERHWRIFSLSGTLETVRGRGVVGREPVLSKEQPAFQYSSHVSLQASSGHMWGTFRFERPDGSHFDVRIPPFSLESNKDEKTPPSGLHW [POLDIP2]

>  <melting temperature [°C]>
51.4

$$$$
>  <Substance>
MARENGESSSSWKKQAEDIKKIFEFKETLGTGAFSEVVLAEEKATGKLFAVKCIPKKALKGKESSIENEIAVLRKIKHENIVALEDIYESPNHLYLVMQLVSGGELFDRIVEKGFYTEKDASTLIRQVLDAVYYLHRMGIVHRDLKPENLLYYSQDEESKIMISDFGLSKMEGKGDVMSTACGTPGYVAPEVLAQKPYSKAVDCWSIGVIAYILLCGYPPFYDENDSKLFEQILKAEYEFDSPYWDDISDSAKDFIRNLMEKDPNKRYTCEQAARHPWIAGDTALNKNIHESVSAQIRKNFAKSKWRQAFNATAVVRHMRKLHLGSSLDSSNASVSSSLSLASQKDCLAPSTLCSFISSSSGVSGVGAERRPRPTTVTAVHSGSK [CAMK1D]

>  <melting temperature [°C]>
50.3

$$$$
>  <Substance>
MEDTPLVISKQKTEVVCGVPTQVVCTAFSSHILVVVTQFGKMGTLVSLEPSSVASDVSKPVLTTKVLLGQDEPLIHVFAKNLVAFVSQEAGNRAVLLAVAVKDKSMEGLKALREVIRVCQVW [PSMG3]

>  <melting temperature [°C]>
56.2

$$$$
>  <Substance>
MATRRLTDAFLLLRNNSIQNRQLLAEQVSSHITSSPLHSRSIAAELDELADDRMALVSGISLDPEAAIGVTKRPPPKWVDGVDEIQYDVGRIKQKMKELASLHDKHLNRPTLDDSSEEEHAIEITTQEITQLFHRCQRAVQALPSRARACSEQEGRLLGNVVASLAQALQELSTSFRHAQSGYLKRMKNREERSQHFFDTSVPLMDDGDDNTLYHRGFTEDQLVLVEQNTLMVEEREREIRQIVQSISDLNEIFRDLGAMIVEQGTVLDRIDYNVEQSCIKTEDGLKQLHKAEQYQKKNRKMLVILILFVIIIVLIVVLVGVKSR [STX16]

>  <melting temperature [°C]>
49.8

$$$$
>  <Substance>
MGQNDLMGTAEDFADQFLRVTKQYLPHVARLCLISTFLEDGIRMWFQWSEQRDYIDTTWNCGYLLASSFVFLNLLGQLTGCVLVLSRNFVQYACFGLFGIIALQTIAYSILWDLKFLMRNLALGGGLLLLLAESRSEGKSMFAGVPTMRESSPKQYMQLGGRVLLVLMFMTLLHFDASFFSIVQNIVGTALMILVAIGFKTKLAALTLVVWLFAINVYFNAFWTIPVYKPMHDFLKYDFFQTMSVIGGLLLVVALGPGGVSMDEKKKEW [SURF4]

>  <melting temperature [°C]>
56.2

$$$$
